These data points were gathered from ChEMBL document CHEMBL3045216.

- Tested on: MCF7
- experimental.protocol: Anticancer activity against Homo sapiens (human) MCF7 cells assessed as inhibition of cell proliferation after 24 hr by MTT assay
- Format: functional, cell-based
- experimental.conditions: MCF7, 24 h
// IC50 lookup, one value per entry
Give just the numeric value; µM need not be written.

Below: 2 molecules and their reported IC50.
>  <smiles.entry>
COc1ccc(Nn2c(-c3sc(N4CCNCC4)nc3-c3ccccc3)nc3ccccc3c2=O)cc1

>  <IC50 [µM]>
11.4

$$$$
>  <smiles.entry>
O=C(c1ccccc1)N1CCN(c2nc(-c3ccccc3)c(-c3nc4ccccc4c(=O)n3-c3ccccc3[N+](=O)[O-])s2)CC1

>  <IC50 [µM]>
6.49

$$$$

Then there is this molecule:
Req: Item under review: O=c1c2ccccc2nc(-c2sc(N3CCNCC3)nc2-c2ccccc2)n1-c1ccccc1 . Reported IC50?
Resp: 46.7

###

// IC50 lookup, one value per entry
- Tested on: MCF7
- experimental.protocol: Anticancer activity against Homo sapiens (human) MCF7 cells assessed as inhibition of cell proliferation after 24 hr by MTT assay
- Assay type: functional, cell-based
- experimental.conditions: MCF7, 24 h
Give just the numeric value; nM need not be written.

Below: 5 compounds and their reported IC50.
>  <compound>
O=C(c1ccccc1)N1CCN(c2nc(-c3ccccc3)c(-c3nc4ccccc4c(=O)n3-c3ccccc3)s2)CC1

>  <IC50 (nM)>
19900

$$$$
>  <compound>
CN1CCN(c2nc(-c3ccccc3)c(-c3nc4ccccc4c(=O)n3-c3ccccc3[N+](=O)[O-])s2)CC1

>  <IC50 (nM)>
8900

$$$$
>  <compound>
CN1CCN(c2nc(-c3ccccc3)c(-c3nc4ccccc4c(=O)n3-c3ccccc3)s2)CC1

>  <IC50 (nM)>
5840

$$$$
>  <compound>
O=c1c2ccccc2nc(-c2sc(N3CCNCC3)nc2-c2ccccc2)n1-c1ccccc1[N+](=O)[O-]

>  <IC50 (nM)>
5860

$$$$
>  <compound>
COc1ccccc1-n1c(-c2sc(N3CCN(C(=O)c4ccccc4)CC3)nc2-c2ccccc2)nc2ccccc2c1=O

>  <IC50 (nM)>
660

$$$$

Then there is this compound:
Req: Item under review: CN1CCN(c2nc(-c3ccccc3)c(-c3nc4ccccc4c(=O)n3Nc3ccccc3)s2)CC1 . Reported IC50?
Resp: 160

###

// pIC50 lookup, one value per entry
- Test system: MCF7
- experimental.protocol: Anticancer activity against Homo sapiens (human) MCF7 cells assessed as inhibition of cell proliferation after 24 hr by MTT assay
- Assay type: functional, cell-based
- experimental.conditions: MCF7, 24 h
The quantity pIC50 is defined as the negative base-10 logarithm of the molar concentration.

Below: 3 molecules and their reported pIC50.
>  <molecule>
CN1CCN(c2nc(-c3ccccc3)c(-c3nc4ccccc4c(=O)n3-c3ccc(Cl)cc3)s2)CC1

>  <pIC50>
5.71

$$$$
>  <molecule>
COc1ccccc1-n1c(-c2sc(N3CCN(C)CC3)nc2-c2ccccc2)nc2ccccc2c1=O

>  <pIC50>
5.82

$$$$
>  <molecule>
O=C(c1ccccc1)N1CCN(c2nc(-c3ccccc3)c(-c3nc4ccccc4c(=O)n3Nc3ccccc3)s2)CC1

>  <pIC50>
5.60

$$$$

Req: Item under review: COc1ccccc1-n1c(-c2sc(N3CCNCC3)nc2-c2ccccc2)nc2ccccc2c1=O . Reported pIC50?
Resp: 5.43

Req: Item under review: O=c1[nH]cc(F)c(=O)[nH]1 . Reported pIC50?
Resp: 5.90

Req: Item under review: CN(Cc1cnc2nc(N)nc(N)c2n1)c1ccc(C(=O)N[C@@H](CCC(=O)O)C(=O)O)cc1 [METHOTREXATE] . Reported pIC50?
Resp: 5.65
